- TARGET_OF_ASSAY: T1, Mcl-1, Q07820
- T1 chain: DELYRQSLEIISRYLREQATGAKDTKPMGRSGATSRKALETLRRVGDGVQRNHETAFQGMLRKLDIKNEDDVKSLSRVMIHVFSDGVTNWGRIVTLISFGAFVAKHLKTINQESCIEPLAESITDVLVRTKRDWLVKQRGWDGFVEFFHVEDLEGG
- ASSAY_PROTOCOL: fluorescence polarisation, direct titration of receptor into 10 nM labelled peptide
pKd: −log10 of the molar value.
OBSERVABLE: pKd

BINDER: EEIIHKLAMQLRHIGDNIDHRMVRED [PXT1]
pKd: 9.05

## Task What does the record list as pKd for ADAIRPRCVELRHLCDDFINGNKKKW [MCF2L2] ?
## Result < 5.40

## Task What does the record list as pKd for TDENKKVGLALKDLAKQYSDRLECCE [NUB1] ?
## Result < 5.00

## Task What does the record list as pKd for FKAWGKFGGAFCRYADEMKEIQERQR [PURB] ?
## Result < 5.40
